Measured pEC50, listed per entry.
- Target Under Test: Muscarinic acetylcholine receptor M4 (Rattus norvegicus) (UniProt P08485)
- Sequence (P08485 whole entry, looked up): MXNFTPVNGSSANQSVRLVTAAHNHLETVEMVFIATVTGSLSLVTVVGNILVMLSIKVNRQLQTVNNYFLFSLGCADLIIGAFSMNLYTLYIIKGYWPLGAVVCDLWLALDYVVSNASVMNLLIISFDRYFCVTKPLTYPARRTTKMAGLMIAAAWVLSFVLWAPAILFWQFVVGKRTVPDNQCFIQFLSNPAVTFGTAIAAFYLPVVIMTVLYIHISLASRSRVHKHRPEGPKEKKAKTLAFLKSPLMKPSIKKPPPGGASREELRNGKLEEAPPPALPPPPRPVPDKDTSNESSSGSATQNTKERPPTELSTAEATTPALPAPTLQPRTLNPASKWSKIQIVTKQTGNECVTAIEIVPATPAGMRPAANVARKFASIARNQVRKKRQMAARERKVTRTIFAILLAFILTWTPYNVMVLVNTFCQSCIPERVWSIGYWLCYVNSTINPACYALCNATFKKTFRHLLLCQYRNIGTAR
- Test Details: ACh potentiation at rat M4, late-stage follow-up, counter-screen for M4 PAM project, CHO Gqi5 cells, calcium (AID 588751)
- Reported Conditions: calcium fluorescence, ACh EC20
pEC50: −log10 of the molar value.
Reported Metric: pEC50

1. Cc1nc2sc(C(=O)NC3CC3)c(N)c2c(C)c1Cl = 6.82
2. Cc1nc2sc(C(=O)NCc3ccccc3)c(N)c2c(C)c1Cl = 6.90
3. Cc1nc2sc(C(=O)NCc3ccc4c(c3)OCO4)c(N)c2c(C)c1Cl = 7.21
4. Cc1nc2sc(C(=O)NCc3ccncn3)c(N)c2c(C)c1Cl = 6.28
5. Cc1nc2sc(C(=O)NCc3cccc(F)c3F)c(N)c2c(C)c1Cl = 6.94
6. Cc1nc2sc(C(=O)NCCc3ccncc3)c(N)c2c(C)c1Cl = 6.64

###

pEC50 values for the molecules below.
- Target Under Test: Muscarinic acetylcholine receptor M4 (Rattus norvegicus)
- Test Details: ACh potentiation at rat M4, late-stage follow-up, counter-screen for M4 PAM project, CHO Gqi5 cells, calcium (AID 588751)
- Reported Conditions: calcium fluorescence, ACh EC20
pEC50: −log10 of the molar value.
Reported Metric: pEC50

1) Cc1nc2sc(C(=O)NCc3cccnc3)c(N)c2c(C)c1Cl = 6.57
2) Cc1nc2sc(C(=O)NCc3nccs3)c(N)c2c(C)c1Cl = 6.73
3) Cc1nc2sc(C(=O)NCc3ccncc3)c(N)c2c(C)c1Cl = 6.76
